- System: 786-0 renal
- assay details: NCI tumour cell line growth inhibition, 48 h
Field: TGI. Provide a value for each of the molecules that follow.

Recorded TGI for CCOC(=O)C1=CC(C)(C(=O)OCC)Nc2c(nc(SC)[nH]c2=O)N1 (stereo unspecified) , please?
> 10 µM

Entry O=C(N/N=C\c1c(O)ccc2ccccc12)c1ccncc1 please
> 25 µM

Entry CC(C)Sc1nncc(/C(N)=N/O)n1 please
> 100 µM

Entry COC(=O)CCC(NC(=S)N/N=C(\C)c1ccco1)C(=O)OC (stereo unspecified) please
> 100 µM

Entry COc1ccc(-c2c3ccccc3c(-c3ccc(OCCBr)cc3)c3ccccc23)cc1 please
> 100 µM

Entry CN(C)CCCNc1c2c(nc3ccc(Cl)cc13)CCCC2 please
23.1 µM

Entry CCOC(=O)Cc1cc(=O)oc2cc(O)ccc12 please
> 100 µM

Entry Cc1cn(C2CC(Br)C(COC(c3ccccc3)(c3ccccc3)c3ccccc3)O2)c(=O)[nH]c1=O (stereo unspecified) please
27.4 µM

Entry O=C(/C=C/c1cccc(O)c1)c1cccc(-n2cc(-c3ccc(Cl)cc3)[nH]c2=O)c1 please
2.99 µM

Entry C[Si](C)(C)/N=C1\N2C(=NC1(C(F)(F)F)C(F)(F)F)Sc1ccccc12 please
> 50 µM

Entry N#Cc1nnc2ccccc2c1N please
> 100 µM

====

- Tested on: TK-10 renal
# valid calls are 1.0 (active), 0.0 (inactive); nothing else

Please share the test call associated with COc1ccc(C(O)c2cc3c(N)c(C(=O)Nc4ccc(Br)cc4)sc3nc2C)cc1 (configuration not stated) .
0.0

Entry Cc1ccc2cc3c(N)c4c(C)ccc(C)c4nc3nc2c1 please
0.0

Entry CC(=O)O[C@H]1C(=O)[C@@]2(C)[C@H]([C@H](OC(=O)c3ccccc3)[C@]3(O)C[C@H](OC(=O)[C@H](OC(=O)OC[C@@H]4COC(C)(C)O4)[C@@H](NC(=O)c4ccccc4)c4ccccc4)C(C)=C1C3(C)C)[C@]1(OC(C)=O)CO[C@@H]1C[C@@H]2O please
0.0

Entry CCCc1n(Cc2ccc3ccccc3c2)c2ccccc2[n+]1Cc1ccc2ccccc2c1 please
0.0

Entry O=C(Nc1ccc(OCc2nnc(-c3ccc(Cl)cc3)o2)c(F)c1)Nc1ccc(Cl)c(Cl)c1 please
0.0

Entry O=C(O)CN1CCN(CC(=O)O)CCN(CC(=O)O)CC1 please
0.0

Entry CC(=O)N1CCN([C@H]2CCC[C@@H](NC(=O)c3cc4c(F)ccc(C)c4[nH]3)C2)CC1 please
0.0

Entry COc1ccc2c(c1)SC1=NNC(Cl)C(=O)N12 (configuration not stated) please
0.0

Entry CC(=O)Nc1cccc(C#Cc2cncnc2Nc2ccc(OCc3cccc(F)c3)c(Cl)c2)n1 please
1.0

Entry COC(=O)/C=C1/SC(=Nc2ccc(C(F)(F)F)cc2)N(CCc2c[nH]c3ccc(O)cc23)C1=O please
0.0

Entry CC#CC#Cc1cccc(=O)o1 please
0.0

Entry CC[C@H](Nc1cc(C)nc(N)n1)c1nc2cccc(NCc3ccc(C(=O)NO)cc3)c2c(=O)n1-c1ccccc1 please
0.0

====

- Test system: MOLT-4 leukemia
- assay details: NCI tumour cell line growth inhibition, 48 h
Field: TGI. Provide a value for each of the compounds that follow.
Numeric only. Scale: µM

Recorded TGI for CCCOC(=O)c1ccc2c(c1)[N+](=O)C(C(=O)c1ccccc1)=C(C(F)(F)F)[N+]2=O , please?
4.09

Entry C/C(=N/NC(=S)N1CCCCC1)c1cccc(/C(C)=N\NC(=S)N2CCCCC2)n1 please
6.38

Entry CC/C(=C(\c1ccc(Cl)cc1)c1ccc(OCCN2CCCCC2)cc1)c1ccc(O)cc1 please
4.43

Entry Cc1cn(C2CC(Br)C(COC(c3ccccc3)(c3ccccc3)c3ccccc3)O2)c(=O)[nH]c1=O (stereo not given) please
28.8

Entry COc1ccc2c3ccc4c(c3n(C)c2c1)C(=O)C=CC4=O please
13.6
